- testedOn: Fuc(a1-2)[Gal(a1-3)]Gal(b1-4)GlcNAc(b1-2)Man(a1-3)[Fuc(a1-2)[Gal(a1-3)]Gal(b1-4)GlcNAc(b1-2)Man(a1-6)]Man(b1-4)GlcNAc(b1-4)GlcNAc
- assayText: glycan array binding signal (z-score within array); higher = stronger binding
- conditionDescription: glycan notation: IUPAC condensed, linker removed
This excerpt belongs to a sample that is enriched for the strongest signals.
Assignment: determine reported glycan array binding signal (z-score) for the given binders.

Worked examples follow.
LecRKVI.2 (protein) RTTTNFAFRGFNGNQSKIRIEGAAMIKPDGLLRLTDRKSNVTGTAFYHKPVRLLNRNSTNVTIRSFSTSFVFVIIPSSSSNKGFGFTFTLSPTPYRLNAGSAQYLGVFNKENNGDPRNHVFAVEFDTVQGSRDDNTDRIGNDIGLNYNSRTSDLQEPVVYYNNDDHNKKEDFQLESGNPIQALLEYDGATQMLNVTVYPARLGFKPTKPLISQHVPKLLEIVQEEMYVGFTASTGKGQSSAHYVMGWSFSSGGERPIADVLILSELPPPPPNKAKKEGLNS
0.276
CREG (Mus musculus), O88668 (protein) MAARAPELARSLLAALLAPALVALLVSPASGRGGRDHGDWDVDRRLPPLPPREDGPRVARFVTHVSDWGSLATISTIKEVRGWPFADIISISDGPPGEGTGEPYMYLSPLQQAVSDLQENPEATLTMSLAQTVYCRNHGFDPQSPLCVHIMMSGTVTKVNKTEEDYARDSLFVRHPEMKHWPSSHNWFFAKLKISRIWVLDYFGGPKVVTPEEYFNVTLQ
2.76

From here, focus on the item given below.
Give its glycan array binding signal (z-score) value. Item: PFL (Pseudomonas fluorescens) (protein) MSKYAVANQWGGSSAPWHPGGTWVLGARDNQNVVAIEIKSGDGGKSFTGTMTYAGEGPIGFKAQRTGQNQYNVENQWGGNDAPWHPGGKWVIGGRDNQNVIALSVTSSDGGKNLSGTNTYANEGPIGFRGQIE
-0.073

Origin of measurements: the supplement of paper PMC8728848
